src = the CATMoS acute toxicity set (Mansouri et al. 2021)

Reported log10(LD50) is given for each of the following compounds.
- PROCEDURE TEXT: rat acute oral toxicity
- CONDITIONS: in vivo
- Description: […]The data set underlying the modeling effort for this project was initially compiled by NICEATM and U.S. EPA’s CCTE. Briefly, LD50 data were collected from rat acute oral systemic toxicity tests, including limit tests, ranges/confidence intervals, and discrete LD50 values. The full data set included 21,200 LD50 entries for 15,688 substances. […]
Quick note: numbers are log10 of LD50, with mg/kg as the unit.

O=C(O)C1CCC(C(=O)O)CC1 (stereo not given): 3.28
CC1(C)CC(=O)CC(C)(C)N1: 3.12
CCN(CC)C(=S)S: 3.18
O=S1(=O)CCCC1: 3.29

Next:
Prompt: I would be grateful if you could share the reported log10(LD50) for "CNC(=O)Oc1ccccc1OC(C)C" .
Response: 1.61
